- test.system: IDO1 (Homo sapiens)
- assay.procedure: Hela cell-based IDO1 assay
- experimental.parameters: Hela cells
measurement.type: EC50 (nM)
Entry rule: numbers only, all in nM.

Q) Given the entry OC(c1c(C2CC2)ccc2cncn12)C1CCC(c2ccnc3c(F)cccc23)CC1 (centres unmarked) [Example D164] , report its measured EC50.
A) 51

Q) Field entry: O[C@@H](c1c(C2CC2)ccc2cncn12)[C@H]1CC[C@H](c2ccc(F)c3ccccc32)CC1 (single isomer, unassigned) [Example D137b]
A) 2100

Q) Field entry: O[C@@H](c1c(C2CC2)ccc2cncn12)[C@H]1CC[C@H](c2ccc3sccc3c2)CC1 (single isomer, unassigned) [Example D133b]
A) 8900

Q) Field entry: OC(c1c(C2CC2)ccn2cncc12)C1CCC(c2ccccc2F)CC1 (racemic) [Example C108]
A) 320

Q) Field entry: COc1cccc(C2CCC(C(O)c3c(C4CC4)ccc4cncn34)CC2)c1 (centres unmarked) [Example D143]
A) 62

Q) Field entry: OC(c1c(C2CC2)ccn2cncc12)C1CCC(c2ccc(OC3CCOCC3)cc2)CC1 (centres unmarked) [Example C119]
A) 148

Q) Field entry: O[C@H](c1c(C2CC2)ccn2cncc12)[C@H]1CC[C@H](c2cccc(F)c2)CC1 (single isomer, unassigned) [Example C109a]
A) 49

Q) Field entry: OC(c1c(C2CC2)ccc2cncn12)C1CCC(c2ccc(F)c(F)c2F)CC1 (centres unmarked) [Example D145]
A) 462

Q) Field entry: OC(c1c(C2CC2)ccc2cncn12)C1CCC(c2ccc(F)cc2Cl)CC1 (centres unmarked) [Example D130]
A) 279

Q) Field entry: O[C@@H](c1c(C2CC2)ccc2cncn12)[C@H]1CC[C@H](c2ccc(F)cc2)CC1 (single isomer, unassigned) [Example D104b]
A) 6830

Q) Field entry: O[C@H](c1c(C2CC2)ccc2cncn12)[C@H]1CC[C@H](c2cc(F)cc(F)c2)CC1 (single isomer, unassigned) [Example D144a]
A) 52

Q) Field entry: Oc1ccc(C2CCC(C(O)c3c(C4CC4)ccc4cncn34)CC2)cc1 (centres unmarked) [Example D106]
A) 68

Q) Field entry: COc1ccc([C@H]2CC[C@H]([C@H](O)c3c(C4CC4)ccn4cncc34)CC2)cc1 [Example C101a]
A) 110

* * *

- test.system: TDO (Homo sapiens, UniProt P48775)
One threshold, 4 µM, splits the recorded IC50 values: lower ones are met, equal or higher ones are not met.

Q) Please indicate whether the reported IC50 of O[C@H](c1cc(Cl)cc2cncn12)[C@H]1CC[C@H](c2ccc(Cl)cc2)CC1 (single isomer, unassigned) [Example E101a] is strictly below 4 µM.
A) met

Q) Field entry: O[C@H](c1c(C2CC2)ccc2cncn12)[C@H]1CC[C@H](c2cccc3ccccc32)CC1 (single isomer, unassigned) [Example D135a]
A) not met

Q) Field entry: O[C@H](c1c(C2CC2)ccc2cncn12)[C@H]1CC[C@H](c2ccc3ccccc3c2)CC1 (single isomer, unassigned) [Example D136a]
A) not met

Q) Field entry: OC(c1c(C2CC2)ccc2cncn12)[C@H]1CC[C@H](c2ccc(OC3CCOCC3)cc2)CC1 (single isomer, unassigned) [Example D114c]
A) not met

* * *

- test.system: IDO1 (Homo sapiens, UniProt P14902)
- Sequence (P14902 whole entry): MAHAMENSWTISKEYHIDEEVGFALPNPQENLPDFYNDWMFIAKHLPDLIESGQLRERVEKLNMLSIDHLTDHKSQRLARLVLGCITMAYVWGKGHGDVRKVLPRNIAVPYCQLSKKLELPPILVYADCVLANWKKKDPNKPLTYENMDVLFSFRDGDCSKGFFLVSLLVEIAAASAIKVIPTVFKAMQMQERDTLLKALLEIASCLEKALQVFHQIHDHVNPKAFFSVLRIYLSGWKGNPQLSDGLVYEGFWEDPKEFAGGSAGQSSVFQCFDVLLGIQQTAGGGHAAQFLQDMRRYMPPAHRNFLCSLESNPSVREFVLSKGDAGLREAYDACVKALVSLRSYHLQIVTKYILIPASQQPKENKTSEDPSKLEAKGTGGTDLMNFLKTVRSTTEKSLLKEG
- assay.procedure: Hela cell-based IDO1 assay
- experimental.parameters: Hela cells
pEC50: −log10 of the molar value. Counter-ions that a name gives are not always drawn.
Label true when pEC50 >= 6; otherwise false.

Q) Assess whether reported pEC50 for OC(c1c(C2CC2)ccn2cncc12)C1CCN(c2ccc(F)c3ncccc23)CC1 (single isomer, unassigned) [Example C149b] sits at 6 or higher.
A) false

Q) Field entry: OC(c1c(C2CC2)ccc2cncn12)C1CCC(c2ccc(F)c3ncccc23)CC1 (stereo not drawn) [Example D163]
A) true

Q) Field entry: COc1ccc([C@H]2CC[C@H]([C@@H](O)c3c(C4CC4)ccn4cncc34)CC2)cc1 [Example C101b]
A) false

Q) Field entry: OC(c1cc(C2CC2)cc2cncn12)C1CCC(c2ccc(Cl)cc2)CC1 (stereo not drawn) [Example E102]
A) false

Q) Field entry: Cc1ccccc1[C@H]1CC[C@H]([C@H](O)c2c(C3CC3)ccn3cncc23)CC1 (single isomer, unassigned) [Example C112a]
A) true

Q) Field entry: O[C@@H](c1c(C2CC2)ccc2cncn12)[C@H]1CC[C@H](c2ccc(OC(F)(F)F)cc2)CC1 (single isomer, unassigned) [Example D105b]
A) false

Q) Field entry: O[C@@H](c1c(C2CC2)ccc2cncn12)[C@H]1CC[C@H](c2ccc(Cl)c(F)c2)CC1 (single isomer, unassigned) [Example D128b]
A) false

Q) Field entry: OC(c1c(C2CC2)ccc2cncn12)C1CCN(c2ccc(F)cc2)CC1 (stereo not drawn) [Example D171]
A) true

Q) Field entry: OC(c1c(C2CC2)ccn2cncc12)C1CCN(c2ccc(Cl)c3ncccc23)CC1 (stereo not drawn) [Example C154]
A) true

Q) Field entry: COc1ccc([C@H]2CC[C@H](C(O)c3c(C4CC4)ccc4cncn34)CC2)c2ccccc12 (single isomer, unassigned) [Example D139b]
A) false

Q) Field entry: O[C@@H](c1c(C2CC2)ccc2cncn12)[C@H]1CC[C@H](c2ccc(Cl)cc2F)CC1 [Example D131b, hydrochloride]
A) false

Q) Field entry: O[C@H](c1c(C2CC2)ccc2cncn12)[C@H]1CC[C@H](c2cccc3ncccc32)CC1 (single isomer, unassigned) [Example D141a]
A) true

Q) Field entry: O[C@@H](c1c(C2CC2)ccc2cncn12)[C@H]1CC[C@H](c2ccc(F)c(Cl)c2)CC1 (single isomer, unassigned) [Example D129b]
A) false

Q) Field entry: CC(C)c1ccc2cncn2c1[C@@H](O)[C@H]1CC[C@H](c2ccc(Cl)cc2)CC1 (single isomer, unassigned) [Example D115a]
A) true

Q) Field entry: O[C@@H](c1c(C2CC2)ccn2cncc12)[C@H]1CC[C@H](c2ccccc2C(F)(F)F)CC1 (single isomer, unassigned) [Example C116b]
A) false

Q) Field entry: OC(c1c(C2CC2)ccn2cncc12)C1CCC(c2ccnc3c(F)cccc23)CC1 (stereo not drawn) [Example C129]
A) true

Q) Field entry: OC(c1c(C2CC2)ccn2cncc12)C1CCN(c2ccc(F)cc2)CC1 (single isomer, unassigned) [Example C137a]
A) true

Q) Field entry: OC(c1c(C2CC2)ccc2cncn12)C1CCC(c2ccnc3ccc(F)cc23)CC1 (stereo not drawn) [Example D150]
A) true

Q) Field entry: Cc1cccc([C@H]2CC[C@H]([C@@H](O)c3c(C4CC4)ccn4cncc34)CC2)c1 (single isomer, unassigned) [Example C111b]
A) false

Q) Field entry: O[C@H](c1c(C2CC2)ccc2cncn12)[C@H]1CC[C@H](c2ccc(Oc3ccccc3)cc2)CC1 (single isomer, unassigned) [Example D120a]
A) true

Q) Field entry: O[C@@H](c1c(C2CC2)ccc2cncn12)[C@H]1CC[C@H](c2cc(F)cc(F)c2)CC1 (single isomer, unassigned) [Example D144b]
A) false

Q) Field entry: OC(c1c(C2CC2)ccc2cncn12)C1CCC(c2ccc3sccc3c2)CC1 (stereo not drawn) [Example D133]
A) true

Q) Field entry: N#Cc1ccc(C2CCC(C(O)c3c(C4CC4)ccc4cncn34)CC2)cc1 (stereo not drawn) [Example D110]
A) true

Q) Field entry: O[C@@H](c1c(C2CC2)ccc2cncn12)[C@H]1CC[C@H](c2ccccc2Cl)CC1 (single isomer, unassigned) [Example D117b]
A) true

Q) Field entry: NC(=O)c1ccc([C@H]2CC[C@H]([C@H](O)c3c(C4CC4)ccc4cncn34)CC2)cc1 [Example D153]
A) true

Q) Field entry: CC(C)c1ccc2cncn2c1[C@H](O)[C@H]1CC[C@H](c2cccc(F)c2)CC1 (single isomer, unassigned) [Example D167b]
A) false

* * *

- test.system: cellular TDO2 in HEK293-TDO2 cells (Homo sapiens)
- Sequence (P48775 whole entry): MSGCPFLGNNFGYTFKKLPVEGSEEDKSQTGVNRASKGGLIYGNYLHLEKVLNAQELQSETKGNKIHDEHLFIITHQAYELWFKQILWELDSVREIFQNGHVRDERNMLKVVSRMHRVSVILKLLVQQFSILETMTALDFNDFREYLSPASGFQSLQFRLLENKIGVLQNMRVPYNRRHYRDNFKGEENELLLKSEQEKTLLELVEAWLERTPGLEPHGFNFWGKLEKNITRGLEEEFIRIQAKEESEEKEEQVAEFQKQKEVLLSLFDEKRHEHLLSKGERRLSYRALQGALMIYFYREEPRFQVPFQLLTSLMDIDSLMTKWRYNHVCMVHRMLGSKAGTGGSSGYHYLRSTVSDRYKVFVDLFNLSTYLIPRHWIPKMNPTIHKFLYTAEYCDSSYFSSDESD
- assay.procedure: 293-TDO2 cell-based assay (Kyn colorimetric)
- experimental.parameters: 48 hours of incubation
- Method: The inhibitory activity of TDO2 inhibitors is determined by using a colorimetric reaction to measure Kyn generated from L-Trp (L-Tryptophon) oxidation by cellular TDO2 in HEK293-TDO2 cells stably transfected with a plasmid expression of Tryptophan 2,3-dioxygenase (for short, 293-TDO2). HEK293 cells were obtained from the American Type Culture Collection and 293-TDO2 were recovered in 10% FBS-containing phenol red-free DMEM medium. […]
Give measured EC50 for each item. Keep answers brief.

Q) Given the entry Cc1cccc([C@H]2CC[C@H]([C@H](O)c3c(C4CC4)ccn4cncc34)CC2)c1 (single isomer, unassigned) [Example C111a] , report its measured EC50.
A) > 10 µM

Q) Field entry: COc1ccc(C2CCC(C(O)c3c(C4CC4)ccn4cncc34)CC2)cc1 (racemic)
A) > 10 µM

Q) Field entry: OC(c1c(C2CC2)ccn2cncc12)C1CCC(c2cccc3ncccc23)CC1 (stereo not shown)
A) > 10 µM

Q) Field entry: COc1cccc([C@H]2CC[C@H]([C@H](O)c3c(C4CC4)ccn4cncc34)CC2)c1 (single isomer, unassigned) [Example C114a]
A) > 10 µM

Q) Field entry: Oc1ccccc1[C@H]1CC[C@H]([C@H](O)c2c(C3CC3)ccc3cncn23)CC1 (single isomer, unassigned) [Example D112a]
A) > 10 µM

Q) Field entry: N#Cc1ccc(C2CCC(C(O)c3c(C4CC4)ccc4cncn34)CC2)cc1 (stereo not shown)
A) > 10 µM

Q) Field entry: O[C@H](c1c(C2CC2)ccc2cncn12)C1CCN(c2ccc(Cl)cc2)CC1 (single isomer, unassigned) [Example D174a]
A) > 10 µM
